Quick list: growth inhibition per entry.
experiment: NCI Yeast Anticancer Drug Screen. Data for the sgs1 strain (AID 173);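 also: 0% = growth of vehicle-only control cultures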; settings: S. cerevisiae sgs1 mutant, at 33.0 µM, stronger effect = higher value
About 79,000 compounds went through this panel and 15% of them were active in at least one assay; those are over-represented in the sample as a whole. Activity calls are given as the source filed them. Rule as the data show it: active = growth inhibition above about 70%; inactive = the rest.

Which growth inhibition value belongs to CCOC(=O)[C@H]1Nc2ccccc2C2c3ccccc3CC21 (stereo partly specified) ?
64% (inactive)

Which growth inhibition value belongs to Clc1ccc(SC(/C=C/NNC2=NC(c3ccccc3)C(c3ccccc3)=NN2)c2ccccc2)cc1 (stereo unspecified) ?
33% (inactive)

Which growth inhibition value belongs to COc1ccc(O)c(/C=N\Nc2ccccc2)c1 ?
39% (inactive)

Which growth inhibition value belongs to CCCS(=O)(=O)Nc1ccc(Nc2c3ccccc3nc3ccccc23)c(OC)c1 ?
7% (inactive)

Which growth inhibition value belongs to CN(C)Cc1cc(N=Nc2ccc(Cl)cc2)cc(CN(C)C)c1O ?
26% (inactive)

Which growth inhibition value belongs to N#CN=Nc1cc(Cl)c(N=NC#N)cc1Cl ?
13% (inactive)

Which growth inhibition value belongs to COc1ccccc1C(=O)OCC1CCCN2CCCCC12 (stereo unspecified) ?
63% (inactive)

Which growth inhibition value belongs to S=c1[nH]nc(Nc2ccc(Cl)cc2)s1 ?
37% (inactive)

Which growth inhibition value belongs to NC1=NS(=O)(=O)N=C(N)C1=Cc1ccc([N+](=O)[O-])o1 ?
45% (inactive)

Which growth inhibition value belongs to Cc1nc(-c2ccccc2)c(-c2ccccc2)s1 ?
86% (active)

Which growth inhibition value belongs to COC(=O)c1ccc(NCC2=CC(=O)C=CC2=O)cc1O ?
97% (active)

Which growth inhibition value belongs to COP(=O)(OC)/C(=C\C1=CN(C(c2ccccc2)(c2ccccc2)c2ccccc2)CN1)NC=O ?
79% (active)

Which growth inhibition value belongs to C/C(=N\O)C1CC2C=C(C#N)C1N(Cc1ccccc1)C2 (stereo unspecified) ?
9% (inactive)
